- Procedure Summary: in vivo
- Study Conditions: female, Balb/c, mouse, po, 40 mg/kg
Each entry gets not met if its half-life stays under 1 h, and met if its half-life is 1 h or above.

IN: hey, is half-life for this one >= 1 h? CC(C)C[C@H](NC(=O)c1cc2ccccc2[nH]1)C(=O)N[C@H](C=O)C[C@@H]1CCNC1=O [Compound A-1-c]
OUT: met

IN: hey, is half-life for this one >= 1 h? CC(C)C[C@H](NC(=O)c1cc2ccccc2[nH]1)C(=O)N[C@@H](C[C@@H]1CCNC1=O)C(O)S(=O)(=O)[O-].[Na+] (some centres unmarked) [Compound A-1-d]
OUT: not met

IN: hey, is half-life for this one >= 1 h? CC(C)C[C@H](NC(=O)c1cc2c(F)cccc2[nH]1)C(=O)N[C@@H](C[C@@H]1CCNC1=O)C(=O)CO [Compound A-3-e]
OUT: met

----------
- System Name: SARS-CoV-2 M^pro (3CL protease) (Severe acute respiratory syndrome coronavirus 2 (2019-nCoV) (SARS-CoV-2), UniProt P0DTD1)
- Assay type: biochemical
- Study Conditions: read-out: SARS-CoV-2M^pro inhibition IC50; wild type Mpro 17 nM, substrate 40 uM
Readout Kind: pIC50
Answers are plain numbers, as −log10 of the molar value.

Here is how some compounds turned out for pIC50.
> print(dat)
                                     smiles  readout.kind  assay.value
1  CC(C)C[C@H](NC(=O)c1cc2ccccc2[nH]1)C(=O)N1C[C@H]2[C@@H]([C@H]1C(=O)N[C@H](C=O)C[C@@H]1CCNC1=O)C2(C)C         pIC50         8.02
2  CC1(C)[C@@H]2[C@@H](C(=O)N[C@H](C#N)C[C@@H]3CCNC3=O)N(C(=O)[C@@H](NC(=O)C(F)F)C3CC3)C[C@@H]21         pIC50         7.23
3  CC(C)C[C@H](NC(=O)[C@@H](NC(=O)C(F)F)[C@@H](C)OC(C)(C)C)C(=O)N[C@H](C#N)C[C@@H]1CCNC1=O         pIC50         8.09
4  Cc1cccc2[nH]c(C(=O)N[C@@H](CC(C)C)C(=O)N[C@H](C#N)C[C@@H]3CCNC3=O)cc12         pIC50         6.76

Return reported pIC50 values for all items listed beneath this line.
1. CC(C)C[C@H](NC(=O)c1cc2ccccc2[nH]1)C(=O)N1C[C@H]2[C@@H]([C@H]1C(=O)N[C@@H](C[C@@H]1CCNC1=O)C(=O)CO)C2(C)C
2. CC(C)C[C@H](NC(=O)C1CC1)C(=O)N1C[C@H]2[C@@H]([C@H]1C(=O)N[C@H](C#N)C[C@@H]1CCNC1=O)C2(C)C
3. CC1(C)[C@@H]2[C@@H](C(=O)N[C@H](C#N)C[C@@H]3CCNC3=O)N(C(=O)[C@@H](NC(=O)C(F)(F)F)C3CC3)C[C@@H]21
4. CC(C)(C)C(=O)N[C@H](C(=O)N1C[C@H]2[C@@H]([C@H]1C(=O)N[C@H](C#N)C[C@@H]1CCNC1=O)C2(C)C)C(C)(C)C

OUT:
7.24
7.54
7.62
7.39
